These data points were gathered from patent US6673793B2.

| MOLECULE | melting point |
| --- | --- |
| O=C(NCc1ccc(Cl)cc1)c1cn2c3c(cc(CN4CCOCC4)cc3c1=O)OC(CN1CCCCC1)C2 (centres unmarked) | 213 to 215 °C |
| O=C(NCc1ccc(Cl)cc1)c1cn2c3c(cc(CN4CCOCC4)cc3c1=O)OC(c1cccc(CO)c1)C2 (centres unmarked) | 229 to 233 °C |
| O=C(NCc1ccc(Cl)cc1)c1cn2c3c(cc(CN4CCOCC4)cc3c1=O)OC(c1cc(F)cc(F)c1)C2 (centres unmarked) | 234 to 236 °C |
| CC(=O)OCC1Cn2cc(C(=O)NCc3ccc(Cl)cc3)c(=O)c3cc(CN4CCOCC4)cc(c32)O1 (centres unmarked) | 215 to 218 °C |
| COCOCc1ccccc1C1Cn2cc(C(=O)NCc3ccc(Cl)cc3)c(=O)c3cc(CN4CCOCC4)cc(c32)O1 (centres unmarked) | 202.5 to 204.5 °C |
| CC(C)(C)SCC1Cn2cc(C(=O)NCc3ccc(Cl)cc3)c(=O)c3cc(CN4CCOCC4)cc(c32)O1 (centres unmarked) | 198 to 201 °C |
| O=C(NCc1ccc(Cl)cc1)c1cn2c3c(cc(CN4CCOCC4)cc3c1=O)OC(c1ccoc1)C2 (centres unmarked) | 193 to 196 °C |
| COC(=O)CSCC1Cn2cc(C(=O)NCc3ccc(Cl)cc3)c(=O)c3cc(CN4CCOCC4)cc(c32)O1 (centres unmarked) | 182.5 to 183 °C |
